system: TNFα; assay: LPS-induced TNFα release in THP-1 cells; format: cell-based; conditions: Homo sapiens, THP-1, THP1 cells
measured property: IC50 (nM)
Use nM as the unit, but write only the number.

Examples with answers:
>>> print(df.to_string())
                                   compound  assayed_target  observed_result
0  Cc1ccc(-n2nc(C(C)(C)C)cc2NC(=O)Nc2ccc(Oc3ccnc(Nc4cccc(Cl)c4)n3)c3ccccc23)cc1 [Example 13]            TNFα             1600
1  COc1ccc(-n2nc(C(C)(C)C)cc2NC(=O)Nc2ccc(Oc3ccnc(Nc4ccc(O)cc4)n3)c3ccccc23)cc1 [Example 33]            TNFα              0.5

What the record says about Cc1ccc(-n2nc(C(C)(C)C)cc2NC(=O)Nc2ccc(Oc3ccnc(Nc4ccc(Cl)cc4C)n3)c3ccccc23)cc1 [Example 18] : IC50 is 157
